- tgt: T1, Human VE-PTP (HPTP-β) containing first eight FN3 repeats with C-terminal His6 tag (Human ½ VE-PTP ECD) (human, UniProt P23467 23-820)
- T1 construct: Produced in HEK293 cells and purified by the His tag; it was not cut off; also called Human Beta ½ ECD
- T1 sequence: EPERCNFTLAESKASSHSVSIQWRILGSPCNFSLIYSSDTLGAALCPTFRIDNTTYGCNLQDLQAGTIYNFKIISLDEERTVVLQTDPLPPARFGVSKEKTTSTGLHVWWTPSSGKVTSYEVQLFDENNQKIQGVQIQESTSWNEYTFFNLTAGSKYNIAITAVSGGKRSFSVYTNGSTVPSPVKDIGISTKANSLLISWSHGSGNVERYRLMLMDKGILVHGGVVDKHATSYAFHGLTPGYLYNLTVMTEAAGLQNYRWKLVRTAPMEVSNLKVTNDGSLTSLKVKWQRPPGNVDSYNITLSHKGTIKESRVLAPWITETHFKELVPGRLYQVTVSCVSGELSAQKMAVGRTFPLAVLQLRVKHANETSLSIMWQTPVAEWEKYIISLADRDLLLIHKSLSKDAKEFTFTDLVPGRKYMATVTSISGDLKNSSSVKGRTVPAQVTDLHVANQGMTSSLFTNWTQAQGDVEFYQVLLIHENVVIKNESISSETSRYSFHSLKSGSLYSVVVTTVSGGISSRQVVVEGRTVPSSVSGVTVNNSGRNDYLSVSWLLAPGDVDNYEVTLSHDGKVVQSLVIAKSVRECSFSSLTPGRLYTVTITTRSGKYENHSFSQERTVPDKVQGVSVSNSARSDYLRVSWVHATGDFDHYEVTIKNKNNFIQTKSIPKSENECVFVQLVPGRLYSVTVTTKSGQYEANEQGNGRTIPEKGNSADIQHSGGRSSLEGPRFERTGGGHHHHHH
- experiment: SPR (Biacore 3000), antibody captured on anti-human IgG, antigen as analyte 100 nM (single concentration)
property: Ka (M⁻¹)
State just the number; it will be interpreted in M⁻¹.

>>> val("humanized R15E6 variant HC1LC4 (antibody, human IgG4 S228P, kappa, V domains shown, Human IgG4 (S228P) / kappa, expressed in CHO cells; Signal peptides left out by range; also called VH1-VL4) VH: EVQLVESGGGLVQPGGSLKLSCAASGFTFNANAMNWVRQASGKGLEWVGRIRTKSNNYATYYAGSVKDRFTISRDDSKNTAYLQMNSLKTEDTAAYYCVRDYYGSSAWITYWGQGTLVTVSS VL: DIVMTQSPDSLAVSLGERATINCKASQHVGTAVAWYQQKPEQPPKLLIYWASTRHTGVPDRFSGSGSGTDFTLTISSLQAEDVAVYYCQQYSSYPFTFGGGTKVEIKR")
"2.26e+08"

Kindly consider the entry below.
Qu. For the binder humanized R15E6 variant HC1LC2 (antibody, human IgG4 S228P, kappa, V domains shown, Human IgG4 (S228P) / kappa, expressed in CHO cells; Signal peptides left out by range; also called VH1-VL2) VH: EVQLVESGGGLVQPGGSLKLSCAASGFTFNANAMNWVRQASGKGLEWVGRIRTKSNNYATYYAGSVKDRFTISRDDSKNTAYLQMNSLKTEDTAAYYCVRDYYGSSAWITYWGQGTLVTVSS VL: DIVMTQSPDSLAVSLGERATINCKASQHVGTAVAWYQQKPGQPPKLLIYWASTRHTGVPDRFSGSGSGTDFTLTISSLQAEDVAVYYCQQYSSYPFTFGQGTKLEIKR , give its reported Ka.
Ans. 3.27e+08
